- target or test system: human amylin receptor (hAMYR3) (Homo sapiens, UniProt O60896+P30988)
- Construct: host or cells: BHK cells (Hollex-1 line expressing hCTR(a) and CRE-Luc), further transfected with human RAMP3
- Sequence (P30988 25-474): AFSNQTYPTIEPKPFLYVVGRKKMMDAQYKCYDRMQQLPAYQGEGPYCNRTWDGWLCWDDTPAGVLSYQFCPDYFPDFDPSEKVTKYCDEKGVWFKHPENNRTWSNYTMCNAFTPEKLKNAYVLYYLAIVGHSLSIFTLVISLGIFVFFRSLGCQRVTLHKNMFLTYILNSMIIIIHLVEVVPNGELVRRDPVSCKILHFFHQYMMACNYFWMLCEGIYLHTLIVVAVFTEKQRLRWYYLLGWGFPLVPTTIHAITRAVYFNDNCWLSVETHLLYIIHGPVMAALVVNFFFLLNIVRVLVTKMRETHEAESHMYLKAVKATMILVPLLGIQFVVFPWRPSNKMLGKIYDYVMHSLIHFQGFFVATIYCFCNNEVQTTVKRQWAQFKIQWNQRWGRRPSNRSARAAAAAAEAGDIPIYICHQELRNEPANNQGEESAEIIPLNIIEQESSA
- Sequence (O60896 24-148): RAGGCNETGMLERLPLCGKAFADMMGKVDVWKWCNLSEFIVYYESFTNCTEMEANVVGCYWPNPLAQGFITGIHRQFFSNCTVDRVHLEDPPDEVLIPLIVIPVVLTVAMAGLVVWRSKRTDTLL
- assay text: Amylin receptor assay, method A (CRE-luciferase reporter, BHK cells)
- Format: cell-based
- assay context: method A, absence of HSA; read-out: hAMYR3 Potency, no HSA, EC50
Numbered stars: 1 amine (or outer) side, 2 acyl side, 3 side chain; on linkers, the order of the positions; unused ones are H or OH. Square brackets hold non-standard residues; d marks the D form. Side chains are listed from the residue outwards. * marks the point of attachment. C18 diacid = O=C(O)CCCCCCCCCCCCCCCCC(=O)*; γGlu = O=C(O)[C@H](CCC(=O)[*:2])N[*:1]; AEEA = NCCOCCOCC(=O)O; Aib = CC(C)(N)C(=O)O

{"substance": "Y[Aib]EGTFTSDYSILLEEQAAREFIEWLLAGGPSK([AEEA-AEEA-γGlu-C18 diacid])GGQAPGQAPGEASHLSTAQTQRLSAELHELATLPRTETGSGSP-NH2 [Compound 38]", "unit": "pM", "EC50": 3.63}
{"substance": "Y[Aib]EGTFTSDYSILLEEQAAREFIEWLLAGGPSSGEASHLSTAQTQRLSAELHK([AEEA-AEEA-γGlu-C18 diacid])LATLPRTETGSGSP-NH2 [Compound 50]", "unit": "pM", "EC50": 3.2}
{"substance": "Y[Aib]EGTFTSDYSILLEEQAAREFIEWLLAGGPSSGAGQAPGQAPLASHLSTAQTARLSAELHK([AEEA-AEEA-γGlu-C18 diacid])LATLPRTETGSGSP-NH2 [Compound 98]", "unit": "pM", "EC50": 2.3}

----------
Recorded pEC50 values for a group of substances are listed next.
- target or test system: human amylin receptor (hAMYR3) (Homo sapiens, UniProt O60896+P30988)
- Construct: host or cells: BHK cells (Hollex-1 line expressing hCTR(a) and CRE-Luc), further transfected with human RAMP3
- assay text: Amylin receptor assay, method A (CRE-luciferase reporter, BHK cells)
- Format: cell-based
- assay context: hAMYR3 Potency, 1% HSA, EC50, method A, in the presence of 1% HSA
- Method: To assess how the activation of the receptors is potentially influenced by the presence of human serum albumin (HSA), the in vitro assays were performed in the absence of HSA and presence of 1% (w/v) HSA. It is thus possible to measure hAMYR3 activity using a CRE-luciferase reporter gene introduced into Baby Hamster Kidney (BHK) cells co-expressing the hAMYR3. […] The plate was incubated over night at 37° C. in 5% CO2. […] Luminescence was detected on a luminescence plate reader e.g., a Synergy 2 (BioTek).
pEC50: −log10 of the molar value. Numbered stars: 1 amine (or outer) side, 2 acyl side, 3 side chain; on linkers, the order of the positions; unused ones are H or OH. Square brackets hold non-standard residues; d marks the D form. Side chains are listed from the residue outwards. * marks the point of attachment. C20 diacid = O=C(O)CCCCCCCCCCCCCCCCCCC(=O)*; C18 diacid = O=C(O)CCCCCCCCCCCCCCCCC(=O)*; C16 diacid = O=C(O)CCCCCCCCCCCCCCC(=O)*; γGlu = O=C(O)[C@H](CCC(=O)[*:2])N[*:1]; AEEA = NCCOCCOCC(=O)O; Aib = CC(C)(N)C(=O)O
property: pEC50

{"substance": "H[Aib]HGTFTSDYSILLEEQAAREFIEWLLAGGPSSGEASHLSTAALGRLSAELHK([AEEA-AEEA-γGlu-C18 diacid])LATLPRTETGSGSP-NH2 [Compound 88]", "property": "pEC50", "observed value": 9.99}
{"substance": "H[Aib]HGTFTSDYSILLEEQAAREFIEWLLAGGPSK([AEEA-AEEA-γGlu-C18 diacid])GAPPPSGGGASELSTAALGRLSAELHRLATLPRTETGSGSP-NH2 [Compound 86]", "property": "pEC50", "observed value": 10.23}
{"substance": "Y[Aib]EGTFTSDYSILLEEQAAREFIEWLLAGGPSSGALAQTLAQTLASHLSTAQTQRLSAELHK([AEEA-AEEA-γGlu-C16 diacid])LATLPRTETGSGSP-NH2 [Compound 59]", "property": "pEC50", "observed value": 10.62}
{"substance": "H[Aib]HGTFTSDYSILLEEQAAREFIEWLLAGGPSRGAPPPSGGGEASELSTAALGRLSAELHK([AEEA-AEEA-γGlu-C18 diacid])LATLPRTETGSGSP-NH2 [Compound 70]", "property": "pEC50", "observed value": 10.23}
{"substance": "H[Aib]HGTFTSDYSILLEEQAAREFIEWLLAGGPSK([γGlu-C18 diacid])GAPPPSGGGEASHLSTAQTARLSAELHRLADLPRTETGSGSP-NH2 [Compound 112]", "property": "pEC50", "observed value": 9.57}
{"substance": "H[Aib]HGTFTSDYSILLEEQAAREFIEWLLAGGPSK([AEEA-AEEA-γGlu-C20 diacid])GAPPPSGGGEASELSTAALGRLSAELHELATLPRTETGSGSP-NH2 [Compound 16]", "property": "pEC50", "observed value": 9.78}
{"substance": "H[Aib]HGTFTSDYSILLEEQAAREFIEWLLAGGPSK([AEEA-AEEA-γGlu-C16 diacid])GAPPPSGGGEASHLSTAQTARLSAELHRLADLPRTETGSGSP-NH2 [Compound 61]", "property": "pEC50", "observed value": 10.51}
